biological target: Voltage-gated potassium channel subunit beta-2 (Rattus norvegicus); experiment: enhancers of rat Kvbeta2 NADPH turnover – biochemical, NADPH fluorescence, primary screen (AID 623); details: Recombinant KvBeta, NADPH fluorescence decrease slope, 10 min; at 10 µM; hits give low values;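 note: fluorescence intensity change per second fitted from 20 to 320 s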
Calls of active or inactive are those of the source.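 Rule for the calls: active = NADPH fluorescence slope more negative than the mean of all samples by about 3 SD, 99.7% confidence; inactive = the rest.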
VALUE KIND: NADPH fluorescence slope

MOLECULE | TEST VALUE
Cc1cccn2c(=O)c3cc(C#N)c(=O)n(CCCN4CCOCC4)c3nc12 | -1.6e-05 (inactive)
COC(=O)Cn1c2c(c3cc(C)ccc31)CCCC2 | -0.000167 (inactive)
Cc1cc2ncn(N)c2cc1C | -1e-05 (inactive)
O=C(NCCc1cccc(Cl)c1)c1cccnc1 | -1.7e-05 (inactive)
COc1cc(-c2c(C#N)c(N)nc3c2CCCC3)cc(OC)c1OC | -6.8e-05 (inactive)

Look at each molecule and report its NADPH fluorescence slope.
1. CCOC(=O)N1CCN(S(=O)(=O)c2cc(Cl)c(OC)cc2Cl)CC1
2. CCn1cc(C(=O)O)c(=O)c2ccc(C)nc21
3. CCOC(=O)N1CCN(c2cc(=O)n(-c3ccc(OCC)cc3)c(=O)[nH]2)CC1

["4.3e-05 (inactive)", "-3.9e-05 (inactive)", "0.0001 (inactive)"]

Look at each molecule and report its NADPH fluorescence slope.
1. CC(C)C(=O)Nc1nnc(CCc2nnc(NC(=O)C(C)C)s2)s1
2. Cc1cc(C)nc(N2CCC(C(=O)NCc3cccc(C(F)(F)F)c3)CC2)n1
3. CCNC(=O)N1c2ccc(OCC)cc2C(C)=CC1(C)C
4. CC(C)CC(=O)CN1C(=O)C2(OCCO2)c2ccccc21

["1.7e-05 (inactive)", "-4.8e-06 (inactive)", "-3e-05 (inactive)", "-1.2e-05 (inactive)"]
